Value source: ChEMBL document CHEMBL1127108

Item-by-item account of inhibition at 10 µM
tested on: Locusta migratoria; experiment: In vitro inhibitory activity of compound on ecdysone biosynthesis in larval prothoracic glands of Locusta migratoria at 10e-5 M concentration; assay type: functional
Result Type: inhibition at 10 µM (%)

• C#C[C@H](O)C(C)C1CCC2C3CC=C4C[C@@H](O)CC[C@]4(C)C3CC[C@@]21C (some centres undefined) = 36
• C#CC[C@@H](O)C(C)C1CCC2C3CC=C4C[C@@H](O)CC[C@]4(C)C3CC[C@@]21C (some centres undefined) = 66
• C#CC[C@H](O)C(C)C1CC[C@H]2[C@@H]3CC=C4C[C@@H](O)CC[C@]4(C)[C@H]3CC[C@]12C (some centres undefined) = 37
• C#CC[C@@H](O)C(C)C1CC[C@H]2[C@@H]3CC=C4C[C@@H](O)CC[C@]4(C)[C@H]3CC[C@]12C (some centres undefined) = 36
